- tested-on: T1, cynomolgus SIRPα (cySIRPα), protein antigen (cynomolgus monkey, UniProt A0A2K5VYQ9 31-369)
- T1 construct: Coated on the plate in ELISA
- T1 sequence: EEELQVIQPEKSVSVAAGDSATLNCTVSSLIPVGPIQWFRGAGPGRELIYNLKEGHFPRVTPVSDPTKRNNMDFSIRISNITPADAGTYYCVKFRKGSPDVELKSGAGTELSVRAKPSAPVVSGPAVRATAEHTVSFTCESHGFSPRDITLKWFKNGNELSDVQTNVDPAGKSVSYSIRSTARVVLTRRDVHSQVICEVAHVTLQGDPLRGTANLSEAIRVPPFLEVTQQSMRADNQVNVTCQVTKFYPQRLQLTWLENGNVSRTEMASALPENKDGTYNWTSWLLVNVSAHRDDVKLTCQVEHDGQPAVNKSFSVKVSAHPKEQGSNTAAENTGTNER
- experiment-description: ELISA, antigen coated
Listed here: items and their measured EC50.
Give just the numeric value; µg/mL need not be written.

Below, each entry is followed by its recorded EC50 result.
anti-SIRPα antibody 2 (antibody, human IgG1, kappa, L234A L235A, V domains shown, Rabbit variable regions on human IgG1 LALA / kappa) VH: QSVEESGGRLVTPGTPLTLTCTVSGFSLSNYAMHWVRQAPGKGLEWIGIIYTGGATSYATWAKGQFTISKTSTTVDLKITSPTTEDTATYFCARGDRDGYAYFNIWGPGTLVTVSL VL: QIVMTQTPFSVSAVVGGTVTIKCQASHNIGSWLAWYQQKPGQRPKLLIYDASTLASGVSSRFKGSGSGTEFTLTISGVESADAATYYCQQGYGISYVHNVFGGGTEVVVKR	0.038
anti-SIRPα antibody 5 (antibody, human IgG1, kappa, L234A L235A, V domains shown, Rabbit variable regions on human IgG1 LALA / kappa) VH: QSVEESGGRLVTPGTPLTLTCTVSGFSLSSYVMGWFRQAAGKGLEYIGYINADGSPYYATWVNGRFTISKTPTTMDLKINSPTTEDTATYFCARVGPLGVDYFNIWGPGTLVTVSL VL: DIVMTQTPASVEAAVGGTVTIKCQASQSINRYLTWYQQKPGQRPKLLIYYASTLESGVPSRFEGSGSGTDYTLTISDLESADAATYYCQSYYYISRTYAFGGGTEVVVKR	0.123
29AM4-5huIgG1LALA (antibody, V domains shown, HAVT20 leader left out) VH: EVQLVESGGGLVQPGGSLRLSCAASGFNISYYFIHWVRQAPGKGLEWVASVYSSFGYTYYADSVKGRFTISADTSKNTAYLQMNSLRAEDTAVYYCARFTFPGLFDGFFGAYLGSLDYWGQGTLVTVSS VL: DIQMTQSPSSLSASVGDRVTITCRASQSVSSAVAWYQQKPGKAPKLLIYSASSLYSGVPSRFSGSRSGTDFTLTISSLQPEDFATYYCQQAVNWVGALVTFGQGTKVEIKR	0.011
anti-SIRPα antibody 3 (antibody, human IgG1, kappa, L234A L235A, V domains shown, Rabbit variable regions on human IgG1 LALA / kappa) VH: QSVEESGGRLVTPGTPLTLACTVSGFSLISYYISWVRQAPEKGLEYIGIINIGGGASYASWAKGRFTISKTSTTVDLKITSPTPEDTATYFCAMSYGMDTGAFNIWGPGTLVTVSL VL: AQVLTQTPASVSAAVGGTVTISCQSSESVYKNNFLSWYQQKPGKPPKLLIYGASTLASGVPSRFKGSGSGTQFTLTISDLESDDAATYFCQGGYRTDIYPFGGGTEVVVKR	0.036

Next:
Exercise: Report EC50, nothing else, for this binder: anti-SIRPα antibody 6 (antibody, human IgG1, kappa, L234A L235A, V domains shown, Rabbit variable regions on human IgG1 LALA / kappa) VH: QSVEESGGRLVTPGTPLTLTCTVSGIDLSSYTMTWVRQAPGKGLEWIGIIYAGGSTAYASWAKGRFTISKTSTTVDLKITSPTTEDTATYFCARSSSDGYDYFNIWGPGTLVTVSL VL: GVVMTQTPSSVSAAVGGTVTINCQASQSIGSWLAWYQQKPGQPPKLLIYQASKLASGVPSRFSGRGSGTHFTLTISDVQSDDAATYYCQQTVTAASNVDNAFGGGTEVVVKR
Solution: 0.033

Origin of the recorded values: patent US20220195063A1
